Sourced from paper PMC8745342

- target: Acetylcholinesterase human (AChE) (Homo sapiens, UniProt P22303)
- Construct: purchased Sigma-Aldrich (Poznań, Poland)
- Sequence (P22303 32-614): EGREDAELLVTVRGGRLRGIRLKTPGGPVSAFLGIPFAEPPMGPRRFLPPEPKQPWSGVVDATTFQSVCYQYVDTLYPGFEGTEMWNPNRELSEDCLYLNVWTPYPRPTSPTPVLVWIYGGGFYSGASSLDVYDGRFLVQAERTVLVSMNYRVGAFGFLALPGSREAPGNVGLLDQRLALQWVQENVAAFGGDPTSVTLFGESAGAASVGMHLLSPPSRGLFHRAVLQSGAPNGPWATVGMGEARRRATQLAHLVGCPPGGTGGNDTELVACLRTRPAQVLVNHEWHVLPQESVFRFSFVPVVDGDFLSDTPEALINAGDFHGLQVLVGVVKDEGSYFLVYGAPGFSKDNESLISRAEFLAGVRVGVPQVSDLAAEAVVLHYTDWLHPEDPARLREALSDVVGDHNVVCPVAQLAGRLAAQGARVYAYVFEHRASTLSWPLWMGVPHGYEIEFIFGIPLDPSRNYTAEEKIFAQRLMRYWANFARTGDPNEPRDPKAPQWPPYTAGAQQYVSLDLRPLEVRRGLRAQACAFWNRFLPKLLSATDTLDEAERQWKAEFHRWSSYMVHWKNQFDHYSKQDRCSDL
- run-description: AChE inhibition kinetics, Ellman's method combined with capillary electrophoresis
- Assay type: biochemical
- test-settings: inhibitor 0.08 mM; acetylthiocholine 0.36–46.00 mM; n = 6
observed-property: Tilt Angle of Lineweaver-Burk line (°)
Entry rule: numbers only, all in °.

Known results for compounds:
>>> value_observed("CC(C)NCC(O)CN1C(=O)C2C(C1=O)C1(C)C(=O)C2(C)C(c2ccccc2)=C1c1ccccc1 (stereo not drawn) [Compound (III)]")
71.50
>>> value_observed("CCC12C(=O)C(CC)(C(c3ccccc3)=C1c1ccccc1)C1C(=O)N(CC(O)CNC(C)C)C(=O)C12 (stereo not drawn) [Compound (I)]")
70.32

// query Tilt Angle of Lineweaver-Burk line value for entry CN(C)CC(O)CN1C(=O)C2C(C1=O)C1(C)C(=O)C2(C)C(c2ccccc2)=C1c1ccccc1 (stereo not drawn) [Compound (IV)]
70.40
